# system.tested: recombinant human GM-CSF protein (human, UniProt P04141 18-144)
# Sequence (P04141 18-144): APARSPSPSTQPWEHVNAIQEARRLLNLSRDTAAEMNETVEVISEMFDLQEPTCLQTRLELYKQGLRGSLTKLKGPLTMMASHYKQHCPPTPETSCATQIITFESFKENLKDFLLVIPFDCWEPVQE
# assay.overview: ELISA
recorded.metric: EC50 (nM)
Numbers only here, please. The scale is nM.

binder	EC50 [nM]
Hu23F4-33 (antibody, V domains shown) VH: EVQLVQSGAEVKKPGASVKVSCKASGYTFTSHYLHWVRQAPGQGLEWIGWIFPGDDKTKYNEKFKGRATLTSDTSISTAYMELSRLRSDDTAVYYCARGTKYLNWNFDVWGQGTTVTVSS VL: DIQLTQSPSFLSASVGDRVTITCKANQNVGTTLAWYQQKPGKAPKALIYSASYRYSGVPSRFSGSGSGTEFTLTISSLQPEDFATYYCHQYTTYPLTFGGGTKVEIK	0.0954
Hu23F4-32 (antibody, V domains shown) VH: EVQLVQSGAEVKKPGASVKVSCKASGYTFTSHYLHWVRQAPGQGLEWIGWIFPGDDKTKYNEKFKGRATLTSDTSISTAYMELSRLRSDDTAVYYCARGTKYLNWNFDVWGQGTTVTVSS VL: DIQLTQSPSFLSASVGDRVTITCKANQNVGTTLAWYQQKPGKAPKLLIYSASYRYSGVPSRFSGSGSGTEFTLTISSLQPEDFATYYCHQYTTYPLTFGGGTKVEIK	0.0873

Let us move to another entry and its EC50.
The reported value for Hu23F4-29 (antibody, V domains shown) VH: EVQLVQSGAEVKKPGASVKVSCKASGYTFTSHYLHWVRQAPGQGLEWMGWIFPGDDKTKYNEKFKGRVTLTSDTSISTAYMELSRLRSDDTAVYYCARGTKYLNWNFDVWGQGTTVTVSS VL: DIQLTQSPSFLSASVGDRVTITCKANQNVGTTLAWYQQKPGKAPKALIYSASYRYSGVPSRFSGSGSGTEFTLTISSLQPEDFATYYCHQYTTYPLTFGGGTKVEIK in terms of EC50 is 0.0736
